Target: UniProtKB P37231
Sequence (P37231 238-503 limits assumed): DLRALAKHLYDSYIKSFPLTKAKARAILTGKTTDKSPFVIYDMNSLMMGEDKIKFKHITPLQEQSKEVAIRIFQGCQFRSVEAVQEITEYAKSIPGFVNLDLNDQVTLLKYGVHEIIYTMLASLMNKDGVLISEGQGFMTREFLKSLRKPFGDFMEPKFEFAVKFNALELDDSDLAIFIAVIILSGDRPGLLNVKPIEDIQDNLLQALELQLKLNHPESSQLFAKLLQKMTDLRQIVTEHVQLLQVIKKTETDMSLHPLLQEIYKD
Assay: Transient transfection (transactivation) assay in CV-1 cells, GAL4-PPAR chimera, luciferase reporter
recordedMetric: EC50

Requested field: EC50. Item: C[C@@H]1CN(c2ccc(C(F)(F)F)c(F)c2)C[C@H](C)N1S(=O)(=O)c1cccc(CC(=O)O)c1 [Example 113] > 100 µM

Field entry: COc1ccccc1N1CCN(S(=O)(=O)c2cc(CC(=O)O)ccc2C)CC1 [Example 159] > 100 µM

Repeat with Cc1cccc(N2CCN(S(=O)(=O)c3cc(C)cc(CC(=O)O)c3)CC2C)c1 (stereo not shown) [Example 168] 5 to 100 µM

Another: O=C(O)Cc1cccc(S(=O)(=O)N2CCN(c3ccc([N+](=O)[O-])cc3)CC2)c1 [Example 135] > 100 µM

Entry to check: Cc1ccc(S(=O)(=O)N2CCCN(c3ccc(C(F)(F)F)cn3)CC2)cc1CC(=O)O [Example 8] < 5 µM

Next up: Cc1cc(CC(=O)O)cc(S(=O)(=O)N2CCN(c3ccc(C(F)(F)F)cn3)[C@@H](C)[C@H]2C)c1 (mixture of isomers) [Example 106] > 100 µM

// same read-out, input: Cc1ccc(S(=O)(=O)N2CCN(c3nc4ccccc4o3)CC2)cc1CC(=O)O [Example 17] 5 to 100 µM

Let us now turn to Cc1cccc(N2CCN(S(=O)(=O)c3ccc(C)c(CC(=O)O)c3)CC2C)c1 (stereo not shown) [Example 177] 5 to 100 µM

Query C[C@@H]1CN(c2ccc(OC(F)(F)F)cc2)C[C@H](C)N1S(=O)(=O)c1ccc(F)c(CC(=O)O)c1F [Example 232] next > 100 µM

Try this compound too: O=C(O)Cc1cccc(S(=O)(=O)N2CCN(c3ccc(Cl)cc3)CC2)c1 [Example 116] 5 to 100 µM

Now this one: Cc1ccc(C)c(N2CCN(S(=O)(=O)c3cccc(CC(=O)O)c3)CC2)c1 [Example 131] 5 to 100 µM

// next record Cc1cc(CC(=O)O)cc(S(=O)(=O)N2CCN(c3ccc(Cl)c(Cl)c3)CC2)c1 [Example 166] 5 to 100 µM

Now consider O=C(O)Cc1cccc(S(=O)(=O)N2CCN(C3CCCCC3)CC2)c1 [Example 130] and answer again. 5 to 100 µM

Would you mind doing CN(C)Cc1cc(CC(=O)O)cc(S(=O)(=O)N2CCN(c3ccc(C(F)(F)F)cc3)CC2)c1 [Example 84] as well? > 100 µM

Would you mind doing O=C(O)Cc1cc(S(=O)(=O)N2CCN(c3ccc(C(F)(F)F)cc3)CC2)ccc1O [Example 208] as well? > 100 µM

Try this compound next: Cc1ccc(S(=O)(=O)N2CCN(c3ccc(C(F)(F)F)cn3)C(C(F)(F)F)C2)cc1CC(=O)O (stereo not shown) [Example 205] 5 to 100 µM
